Target: Sodium-dependent serotonin transporter (Homo sapiens, UniProt P31645)
Sequence (P31645 whole entry): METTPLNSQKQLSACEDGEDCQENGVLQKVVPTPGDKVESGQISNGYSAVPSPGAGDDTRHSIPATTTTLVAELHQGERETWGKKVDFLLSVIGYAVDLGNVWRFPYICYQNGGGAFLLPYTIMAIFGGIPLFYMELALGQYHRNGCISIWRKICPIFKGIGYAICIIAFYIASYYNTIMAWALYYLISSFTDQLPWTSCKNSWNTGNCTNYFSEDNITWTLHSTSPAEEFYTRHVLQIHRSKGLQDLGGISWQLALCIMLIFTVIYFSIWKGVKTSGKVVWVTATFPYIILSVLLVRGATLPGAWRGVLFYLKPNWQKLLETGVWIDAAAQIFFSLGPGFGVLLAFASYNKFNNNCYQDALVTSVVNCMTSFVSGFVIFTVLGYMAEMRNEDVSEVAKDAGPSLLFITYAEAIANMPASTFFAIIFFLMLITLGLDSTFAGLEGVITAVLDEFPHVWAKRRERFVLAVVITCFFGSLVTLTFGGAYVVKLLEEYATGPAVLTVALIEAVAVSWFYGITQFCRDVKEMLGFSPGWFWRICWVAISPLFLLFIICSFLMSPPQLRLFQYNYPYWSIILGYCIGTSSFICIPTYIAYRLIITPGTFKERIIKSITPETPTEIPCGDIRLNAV
property: Ki (nM)

A selection of reference data follows.
| compound | reported |
| --- | --- |
| O=C1CCc2ccc(OC3CCN(C[C@@H]4COc5c(ccc6c5CC(=O)N6)O4)CC3)cc2N1 | 20 |
| O=C1CCc2ccc(CC3C4CCC3CN(C[C@@H]3COc5c(ccc6c5CC(=O)N6)O3)C4)cc2N1 (some centres not stated) | 1.5 |

1 = CS(=O)(=O)Nc1cc(OCCN2CCC(Cc3ccc4c(c3)NC(=O)CC4)CC2)ccc1F
2 = CS(=O)(=O)Nc1cccc(OCCN2CC3CCC(C2)C3Cc2ccc3c(c2)NC(=O)CC3)c1 (configuration not stated)
3 = O=C1CCc2ccc(OCCCN3CCN(c4cccc5[nH]c(=O)oc45)CC3)cc2N1
4 = CS(=O)(=O)Nc1cc(OCCN2CC3CCC(C2)C3Cc2ccc3c(c2)NC(=O)CC3)ccc1F (configuration not stated)
Q. Rank entries according to their Ki, from the largest number down. Reply with the labels, ordered as the question asks.
A. 3, 1, 4, 2
(3: 93 nM, 1: 20 nM, 4: 5 nM, 2: 1.7 nM)

The reported measurements were obtained from ChEMBL document CHEMBL1157886.
